// provenance: patent EP4603105A1

// values below are reported pIC50
Test system: human lung cancer strain NCI-H441
Type: cell-based
pIC50: −log10 of the molar value. Where a SMILES comes first, the peptide text is derived from it. Bridges are numbered along the chain shown (N, C = ends). [ ]: non-standard residue; d: D form. The star is where a group is joined. hPhe(3-Cl-4-CF3) = N[C@@H](CCc1ccc(C(F)(F)F)c(Cl)c1)C(=O)O; NEtPhe(4-Me) = CCN[C@@H](Cc1ccc(C)cc1)C(=O)O; NMeGly(cPent) = CN[C@H](C(=O)O)C1CCCC1; Hyp = O=C(O)[C@@H]1C[C@@H](O)CN1; NMeD = CN[C@@H](CC(=O)O)C(=O)O; NMeL = CN[C@@H](CC(C)C)C(=O)O; Morpholide = C1CN(*)CCO1; NMeA = CN[C@@H](C)C(=O)O; Ac5c = NC1(C(=O)O)CCCC1; Aze = O=C(O)[C@@H]1CCN1; X4 = C1CCC(*)OC1; Sar = CNCC(=O)O
READOUT: pIC50

INSERT INTO results (compound, readout, experimental_value) VALUES
  ('CCO[C@@H]1C[C@H]2C(=O)NC3(CCC3)C(=O)N(C)[C@@H](C(CC)CC)C(=O)N3CCC[C@@H]3CC(=O)N(C)[C@@H](CC)C(=O)N[C@@H]([C@@H](C)CC)C(=O)N(C)CC(=O)N(C)[C@H]3C/C=C\CCN(C3=O)[C@@H](Cc3ccc(C(F)(F)F)cc3)C(=O)N(C)CC(=O)N[C@@H](CCc3cc(F)c(C(F)(F)F)c(F)c3)C(=O)N2C1', 'pIC50', 7.41),
  ('CCO[C@@H]1C[C@H]2C(=O)NC3(CCC3)C(=O)N(C)[C@@H](C3CCCC3)C(=O)N(C)[C@H](C(=O)N(C)CC)CC(=O)N(C)[C@@H](CC(C)C)C(=O)N[C@@H]([C@@H](C)CC)C(=O)N(C)CC(=O)N(C)[C@H]3C/C=C\CCN(C3=O)[C@@H](Cc3ccc(C(F)(F)F)cc3)C(=O)N(C)CC(=O)N[C@@H](CCc3ccc(C(F)(F)F)c(OC)c3)C(=O)N2C1', 'pIC50', 8.29),
  ('CCO[C@@H]1C[C@H]2C(=O)NC3(CCC3)C(=O)N(C)[C@@H](C3CCCC3)C(=O)N(C)[C@H](C(=O)N3CCOCC3)CC(=O)N(CC)[C@@H](CC(C)C)C(=O)N[C@@H]([C@@H](C)CC)C(=O)N(C)CC(=O)N(C)[C@H]3CC(C)=CCN(C3=O)[C@@H](Cc3ccc(C(F)(F)F)cc3)C(=O)N(C)CC(=O)N[C@@H](CCc3cc(F)c(C(F)(F)F)c(F)c3)C(=O)N2C1', 'pIC50', 7.36),
  ('C#CC[C@H]1C(=O)N[C@@H]([C@@H](C)CC)C(=O)N(C)CC(=O)N(C)[C@H]2C/C=C\CCN(C2=O)[C@@H](Cc2ccc(C(F)(F)F)cc2)C(=O)N(C)CC(=O)N[C@@H](CCc2ccc(C(F)(F)F)c(OC)c2)C(=O)N2C[C@@H](C)C[C@H]2C(=O)NC2(CCC2)C(=O)N(C)[C@@H](C2CCCC2)C(=O)N(C)[C@H](C(=O)N(C)CCC)CC(=O)N1C', 'pIC50', 7.87),
  ('CC[C@H](C)[C@@H]1NC(=O)[C@H](CC(C)C)N(C)C(=O)C[C@@H](C(=O)N2CCOCC2)N(C)C(=O)[C@H](C2CCCC2)N(C)C(=O)C2(CCCC2)NC(=O)[C@@H]2C[C@@H](OC3CCCCO3)CN2C(=O)[C@H](CCc2ccc(C(F)(F)F)c(Cl)c2)NC(=O)CN(C)C(=O)[C@H](Cc2ccc(C)cc2)N(CC)C(=O)[C@@H]2CCN2C(=O)[C@H](C)N(C)C1=O (some centres unmarked) [PP0067] ([NMeL]I[NMeA][Aze][NEtPhe(4-Me)][Sar][hPhe(3-Cl-4-CF3)][Hyp](X4)[Ac5c][NMeGly(cPent)][NMeD]-Morpholide; lactam N-11)', 'pIC50', 8.57);
